# Assay summary: Primary fluorescence-based thiol-reactive (MSTI) qHTS assay for identification of artifact compounds. (AID 1845221); note: nearly all actives have a fitted effect of over 65% in size
# Assay conditions: MSTI thiol-reactivity probe, 1 h; series mostly up to 53.8 µM
Records with an inconclusive call do not appear. Activity calls are given as the source filed them. Calls come from the whole dose curve; as a rule, active = well fitted inhibition curve with a large enough effect; inconclusive = small, poorly fitted or top-dose-only effect; inactive = no such curve, though single readings can be large or run the other way.
The reply should be one of these categories: Y = active, N = inactive

Q) Dear colleague, could you share the recorded outcome for CN(C)CCCn1cc(C2=C(c3c[nH]c4ccccc34)C(=O)NC2=O)c2ccccc21 when you have a moment?
A) Y

Q) Query CC(=O)OC1C(OC(=O)c2ccccc2)C2C(C)(C)CCC(OC(C)=O)C2(C)C23CCC(C)(C2)C(=O)CC13 (centres undefined) next
A) N

Q) Query C/C=C/CCC1Cc2cc(O)c(CCCC)c(O)c2C(=O)O1 (centres undefined) next
A) N

Q) Query Cc1ccc(C)c(NC(=O)[C@@H]2CCCN2S(=O)(=O)c2cccc3cccnc23)c1 next
A) N

Q) Query C[C@@H]1C[C@H](C)CN(CCC(=O)Nc2ccc(Br)cc2)C1 next
A) N

Q) Query Nc1nc(OCc2cc(Br)cs2)c2[nH]cnc2n1 next
A) N

Q) Query C=C1C(=O)O[C@@H]2C[C@@]3(C)C[C@@H](O)C[C@H](C)C3=C[C@H]12 next
A) N

Q) Query CC(C)(C)c1ccc(C(=O)Nc2cn3cc(-n4ccnc4)ccc3n2)cc1 next
A) N

Q) Query C=C1C(=O)O[C@H]2C1CCC(C)=C1C(=O)C=C(C)[C@@]12O (some centres undefined) next
A) N

Q) Query Oc1cccc(C2NC(=S)Nc3cccc(F)c32)c1 (centres undefined) next
A) N

Q) Query O=C(NCc1ccccc1)c1ccc2c(=O)n(-c3cccc(C(F)(F)F)c3)c(=S)[nH]c2c1 next
A) N

Q) Query CO[C@H]1O[C@@H]2O[C@@]3(C)CCC4[C@H](C)CCC([C@H]1C)[C@]42OO3 (some centres undefined) next
A) N

Q) Query Cc1cc(CS(=O)(=O)c2ccccc2)cc(OCc2ccc(CN3CCCC3CO)cc2)c1 (centres undefined) next
A) N

Q) Query O=C(NCCN1CCOCC1)c1cc2c(Oc3ccc(NC(=O)C4(C(=O)Nc5ccc(F)cc5)CC4)cc3)ccnc2[nH]1 next
A) N

Q) Query C[C@H](Nc1cc2c(-c3ccc4c(c3)OCO4)noc2cn1)c1ccccc1 next
A) N

Q) Query O=C(O)c1ccc(N2C(=O)/C(=C/c3ccc(-c4ccc([N+](=O)[O-])cc4)o3)C=C2c2ccccc2)cc1 next
A) Y

Q) Query Cc1sc2c(c1C)C(c1ccc(Cl)cc1)=N[C@H](CC(=O)NCCCCNC(=O)COc1cccc3c1C(=O)N([C@H]1CCC(=O)NC1=O)C3=O)c1nnc(C)n1-2 next
A) N

Q) Query C=C(C)C(=O)O[C@H]1[C@H]2C(=C)C(=O)O[C@@H]2/C=C(\CO)CC/C=C(/C=O)[C@@H]1O next
A) N

Q) Query CC1(C)CCC(C)(C)c2cc(C#Cc3ccc(C(=O)O)cc3)ccc21 next
A) N

###

# System name: Cytochrome P450 2D6 (Homo sapiens)
# Assay summary: Cytochrome P450 family 2 subfamily D member 6 (CYP2D6) small molecule antagonists: luciferase biochemical (cell-free) qHTS assay (AID 1645840); note: nearly all actives have a fitted effect of over 55% in size
# Assay conditions: P450-Glo CYP2D6 enzyme, luciferin luminescence, 1 h; series mostly up to 57.4 µM
Results filed as inconclusive are left out. Calls of active or inactive are those of the source. The call rests on the fitted dose curve; in most records, active means well fitted inhibition curve with a large enough effect in the repeat runs; inconclusive means weak or mixed curves; inactive means flat fitted curve, though single readings scatter.
The reply should be one of these categories: active, inactive

Q) Dear colleague, could you share the recorded outcome for Cc1cc2c(N3CCCC3)nc(N3CCCC3)nc2n1C when you have a moment?
A) active

Q) Query CCC(C)CNCC(=O)N1CCC2SC=CC2C1COc1cccc(C)c1 (stereo not given) next
A) active

Q) Query C[C@H]1CO[C@@H]2Cn3cc(C(=O)NCc4ccc(F)cc4F)c(=O)c(O)c3C(=O)N12 next
A) inactive

Q) Query O=C(NCCCCN1CCN(c2cccc(Cl)c2Cl)CC1)c1cc2ccccc2s1 next
A) active

Q) Query CN1CCN(S(=O)(=O)c2ccc(-c3cnc(N)c(C(=O)Nc4cccnc4)n3)cc2)CC1 next
A) inactive

Q) Query COc1cc(OC)c2c(=O)[nH]c(-c3cc(C)c(OCCO)c(C)c3)nc2c1 next
A) inactive

Q) Query COc1ccc(S(=O)(=O)Nc2c(C)cc(C)cc2C)cc1 next
A) inactive

Q) Query Nc1nc2c(s1)CCN(Cc1ccc(Cl)cc1)CC2 next
A) active

Q) Query CCOC(=O)N1c2ccc(C(F)(F)F)cc2C(N(Cc2cc(C(F)(F)F)cc(C(F)(F)F)c2)C(=O)OC)CC1CC (stereo not given) next
A) inactive

Q) Query N#Cc1ccc(COC[C@H]2O[C@@H](n3c(NCc4ccc(Cl)c(Cl)c4)nc4c(N)ncnc43)[C@H](O)[C@@H]2O)cc1 next
A) active

Q) Query CCCC(Nc1nc(-c2ccc(NC(=O)NCC)c(OC)c2)ncc1C)c1cccnc1 (stereo not given) next
A) active

Q) Query O=c1[nH]c2cccc(N3CCN(Cc4ccc(-c5ccccc5)cc4)CC3)c2o1 next
A) active

Q) Query N#Cc1cccc(C(=O)Nc2cc(-c3ccccc3)nn2-c2ccccc2)c1 next
A) inactive

Q) Query O=C1Nc2nc(-c3c(O)cccc3OCC3CC3)cc([C@@H]3CCCNC3)c2CO1 next
A) active

Q) Query CC1(S(=O)(=O)O)CC(=O)c2ccccc2C1=O (stereo not given) next
A) active

Q) Query COc1ccc(NC(=O)c2ccc(C(=N)N(C)C)cc2)c(C(=O)Nc2ccc(Cl)cn2)c1 next
A) inactive

Q) Query CC#CC(=O)Nc1ccc2ncnc(Nc3cccc(Br)c3)c2c1 next
A) inactive

Q) Query CCO[C@H]1CN(C2CCC(O)(c3ccc4c(c3)OCO4)CC2)C[C@@H]1NC(=O)CNC(=O)c1cccc(C(F)(F)F)c1 (stereo not given in full) next
A) active

Q) Query NC(N)=NC(=O)c1cnn(-c2cccc3ncccc23)c1C1CC1 next
A) inactive

Q) Query C[C@H]1[C@H](/C=C/c2ccc(-c3ccccc3C#N)cn2)[C@@H]2[C@@H](C)OC(=O)[C@@H]2C[C@@H]1C next
A) inactive
